Reference source: patent US20210130452A1

- System tested: guinea pig IL-17A (guinea pig)
- Test method notes: ELISA, coated IL-17A
Parameter: OD (OD)
Respond numerically; units are OD and should not be typed.

*Q* Please report the measured OD for 13B03 (VHH, Class 4; also called IL17MS13B03) VHH: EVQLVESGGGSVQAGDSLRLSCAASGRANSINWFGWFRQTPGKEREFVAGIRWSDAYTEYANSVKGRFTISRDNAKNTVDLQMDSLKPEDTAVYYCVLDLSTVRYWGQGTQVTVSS
*A* 0.004

*Q* Please report the measured OD for 11A06 (VHH, Class 2) VHH: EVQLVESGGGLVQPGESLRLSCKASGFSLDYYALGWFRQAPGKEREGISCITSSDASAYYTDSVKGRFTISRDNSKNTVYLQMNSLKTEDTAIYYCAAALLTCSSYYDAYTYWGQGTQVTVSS
*A* 0.007

*Q* Please report the measured OD for 03C07 (VHH, Class 2) VHH: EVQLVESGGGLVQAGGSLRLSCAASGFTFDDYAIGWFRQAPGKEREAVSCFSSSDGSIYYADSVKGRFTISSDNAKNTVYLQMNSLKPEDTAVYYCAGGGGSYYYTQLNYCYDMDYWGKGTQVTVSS
*A* 0.004

*Q* Please report the measured OD for 11C08 (VHH, Class 4) VHH: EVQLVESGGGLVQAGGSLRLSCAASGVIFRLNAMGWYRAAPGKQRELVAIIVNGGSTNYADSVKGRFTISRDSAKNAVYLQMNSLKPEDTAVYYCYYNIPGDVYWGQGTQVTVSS
*A* 0.002

*Q* Please report the measured OD for 09G10 (VHH, Class 2) VHH: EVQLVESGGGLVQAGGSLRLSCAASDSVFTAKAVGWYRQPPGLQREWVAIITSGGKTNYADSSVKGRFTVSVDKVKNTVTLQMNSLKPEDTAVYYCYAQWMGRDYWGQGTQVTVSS
*A* 0.006

*Q* Please report the measured OD for 01A01 (VHH, Class 4) VHH: EVQLVESGGGLVQAGGSLRLSCAASGFTFDDYDIGWFRQAPGKEREGVSCFTSSDGRTFYADSVKGRFTVSADNAKNTVYLQMNSLEPEDTAVYFCAAVNTFDESAYAAFACYDVVRWGQGTQVTVSS
*A* 0.008

*Q* Please report the measured OD for 13E05 (VHH, Class 4) VHH: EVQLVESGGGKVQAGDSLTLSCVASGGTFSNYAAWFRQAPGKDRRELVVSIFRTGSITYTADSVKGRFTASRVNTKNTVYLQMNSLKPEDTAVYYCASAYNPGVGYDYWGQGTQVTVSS
*A* 0.006

*Q* Please report the measured OD for 04G01 (VHH, Class 2; also called IL17MS04G01) VHH: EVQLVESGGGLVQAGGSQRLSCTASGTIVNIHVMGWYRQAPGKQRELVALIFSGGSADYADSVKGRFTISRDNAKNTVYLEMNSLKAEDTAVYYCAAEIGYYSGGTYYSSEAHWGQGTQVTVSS
*A* 0.008
